Hello, the source for this data is paper PMC7753922, in case you need it.

# measurementTarget: mitochondrial complex II (succinate-quinone reductase, SQR) (Echinococcus multilocularis, UniProt A0A1Z4EAV8+A0A1Z4EAW8+A0A1Z4EAX0+A0A1Z4EAX1)
# Construct: gene SDHB1; native complex II in freeze-thawed enriched mitochondrial fraction of protoscoleces; not purified
# Sequence (A0A1Z4EAX0 21-272): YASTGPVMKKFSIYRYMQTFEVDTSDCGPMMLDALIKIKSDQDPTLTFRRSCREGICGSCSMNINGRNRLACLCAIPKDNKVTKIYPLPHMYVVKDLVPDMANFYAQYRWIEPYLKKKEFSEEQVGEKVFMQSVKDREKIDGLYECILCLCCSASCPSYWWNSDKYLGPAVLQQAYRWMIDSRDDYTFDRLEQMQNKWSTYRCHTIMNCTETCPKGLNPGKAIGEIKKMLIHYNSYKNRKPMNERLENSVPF
# Sequence (A0A1Z4EAX1 53-194): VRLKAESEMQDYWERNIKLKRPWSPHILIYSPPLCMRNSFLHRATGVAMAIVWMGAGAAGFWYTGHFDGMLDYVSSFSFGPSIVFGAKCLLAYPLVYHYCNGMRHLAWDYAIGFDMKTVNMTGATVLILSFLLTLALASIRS
# Sequence (A0A1Z4EAW8 47-153): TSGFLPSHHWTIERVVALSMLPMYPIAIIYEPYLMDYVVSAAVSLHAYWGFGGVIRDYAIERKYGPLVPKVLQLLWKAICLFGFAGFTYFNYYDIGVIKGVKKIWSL
# Sequence (A0A1Z4EAV8 26-648): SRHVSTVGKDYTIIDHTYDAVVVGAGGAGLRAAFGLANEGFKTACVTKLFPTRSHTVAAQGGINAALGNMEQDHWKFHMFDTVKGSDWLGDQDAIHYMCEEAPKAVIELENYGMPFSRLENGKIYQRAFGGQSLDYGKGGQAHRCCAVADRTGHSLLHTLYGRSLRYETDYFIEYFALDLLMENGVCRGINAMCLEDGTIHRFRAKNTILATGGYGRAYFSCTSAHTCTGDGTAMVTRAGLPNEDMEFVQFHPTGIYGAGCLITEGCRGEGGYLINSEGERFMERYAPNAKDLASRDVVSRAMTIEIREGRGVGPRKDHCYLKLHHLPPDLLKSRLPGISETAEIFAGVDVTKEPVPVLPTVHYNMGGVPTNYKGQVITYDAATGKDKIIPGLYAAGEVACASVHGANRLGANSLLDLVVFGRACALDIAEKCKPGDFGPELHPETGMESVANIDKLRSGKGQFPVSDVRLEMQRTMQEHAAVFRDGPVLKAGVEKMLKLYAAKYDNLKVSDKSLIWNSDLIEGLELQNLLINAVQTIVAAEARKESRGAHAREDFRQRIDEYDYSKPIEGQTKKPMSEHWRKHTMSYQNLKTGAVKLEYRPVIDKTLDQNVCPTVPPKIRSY
# assay: spectrophotometric succinate-quinone reductase assay, mitochondrial fraction
# Format: biochemical
# protocolConditions: 30 mM potassium phosphate, 1 mM MgCl2, pH 7.5, 25 °C, read-out: NADH-ubiquinone reductase / (Complex I)
pIC50: −log10 of the molar value.
readout: pIC50

## Task Identify measured pIC50 corresponding to C[C@@H]1CC[C@H]2[C@@H](C)C(=O)O[C@@H]3O[C@@]4(C)CC[C@@H]1[C@]32OO4 [artemisinin]
## Result < 4.40
